Listing: Ratio/Fc-H of selected binders
# Study System: T1, FcRn-p3 fusion protein (human, UniProt P55899 24-297; P61769 21-119)
# T1 construct: baculovirus expressed; coated on ELISA wells; not shown: amino terminal part of bacteriophage p3 protein and CVDE protein
# T1 sequence (P55899 24-297, chain 1 of 2): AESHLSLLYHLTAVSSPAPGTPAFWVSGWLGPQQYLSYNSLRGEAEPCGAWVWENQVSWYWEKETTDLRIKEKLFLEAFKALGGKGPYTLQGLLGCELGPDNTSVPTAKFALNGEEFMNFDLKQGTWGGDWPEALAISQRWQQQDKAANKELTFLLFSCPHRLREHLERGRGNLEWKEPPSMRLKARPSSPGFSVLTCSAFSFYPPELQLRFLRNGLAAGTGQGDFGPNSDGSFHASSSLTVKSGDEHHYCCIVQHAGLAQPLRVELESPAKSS
# T1 sequence (P61769 21-119, chain 2 of 2): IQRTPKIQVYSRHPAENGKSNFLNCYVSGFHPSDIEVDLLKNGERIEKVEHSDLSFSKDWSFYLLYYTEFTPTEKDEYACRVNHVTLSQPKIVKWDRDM
# Measurement Notes: phage ELISA pH6
Give your result in fold as a bare value.

{"Binder": "C4A_01 (other, EU numbering) CPPCPAPELLGGPSVFLFPPKPKDTLMISRTPEVTCVVVDVSHEDPEVKFNWYVDGVEVHNAKTKPREEQYNSTYRVVSVLTVLHQDWLDGKEYKCKVSNKALPAPIEKTISKAKGQPREPQVYTLPPSRDELTKNRVSLTCLVKGFYPSDIAVEWESNGQPEKNYKTTPPVLDSDGSFFLYSKLTVDKSRWQQGNVFSCSVMHEALHYHYTQKSLSLSPGK", "Value Measured": 2.4}

Alright, here's another binder for you.
(Q) Which Ratio/Fc-H reading was recorded for the binder C3A_43 (other, EU numbering) CPPCPAPELLGGPSVFLFPPKPKDTLMISRTPEVTCVVVDVSHEDPEVKFNWYVDGVEVHNAKTKPREEQYNSTYRVVSVLTVLHQDWLDGKEYKCKVSNKALPAPIEKTISKAKGQPREPQVYTLPPSRDELTKNQVSLTCLVKGFYPSDIAVEWESNGQPENNYKTTPPVLDSDGSFFLYSKLTVDKSGWQQGNVFSCSVMHEALHYHYTQKSLSLSPGK ?
(A) 2.5
